# System: MARK1;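 further: KINOMEscan kinase panel screen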
# reported conditions: concentration: 1 μM, replicates: in singlicate; n = 1
The following molecules are listed with their measured %Inh values.

- molecule: "Cl.Oc1ccc(-c2nc(-c3ccccc3)[nH]c2-c2ccncc2)cc1"
  %Inh / %: 0
- molecule: "Cc1cccc(-c2nc(Nc3cccc(C(N)=O)c3)c3ccccc3n2)n1"
  %Inh / %: 0
- molecule: "CC(=O)Nc1nc2cnc(Nc3cc(NC(=O)c4cccc(CCC#N)c4)ccc3C)nc2s1"
  %Inh / %: 14
- molecule: "O=C(Nc1ccccc1)Nc1cccc(Oc2ccc3nccn3n2)c1"
  %Inh / %: 2
- molecule: "Cl.NC(=O)c1cccc(Nc2nccc(Nc3ccc(Oc4cccc(Cl)c4)c(Cl)c3)n2)c1"
  %Inh / %: 13
- molecule: "CCCc1ccc(S(=O)(=O)NC2CCN(c3ccnc(Nc4ccc(F)cc4)n3)C2)cc1 (stereo not drawn)"
  %Inh / %: 0
- molecule: "COc1ccc2nc(-c3cccc(C)n3)nc(Nc3ccncc3)c2c1"
  %Inh / %: 0
- molecule: "CS(=O)(=O)c1ccc(-c2c(-c3ncn[nH]3)sc(N3CCOCC3)c2C#N)cc1"
  %Inh / %: 26
- molecule: "O=C1NC(=O)C(N2CCc3ccccc32)=C1c1ccccc1Cl"
  %Inh / %: 9
- molecule: "O=S(=O)(c1ccc(-c2ccnc3[nH]ccc23)cc1)N1CCCC1"
  %Inh / %: 0
- molecule: "Clc1cc(Cl)cc(Nc2ccnc(Nc3cc(Cl)cc(Cl)c3)n2)c1"
  %Inh / %: 0
- molecule: "Fc1cc(Cl)ccc1Nc1ccnc2cc(I)ccc12"
  %Inh / %: 0
- molecule: "COc1cc2nccc(Nc3ccc(NC(=O)c4ccc(C)cc4)c(O)c3)c2cc1OC.Cl"
  %Inh / %: 0
- molecule: "Cc1csc(-c2nc(Nc3ccncc3)c3ccccc3n2)n1"
  %Inh / %: 25
- molecule: "O=C(Nc1n[nH]c2cc(-c3cccc(F)c3F)ccc12)C1CC1"
  %Inh / %: 27
- molecule: "CS(=O)(=O)c1ccc(-c2nc3n(c2-c2ccncc2)CCC3)cc1"
  %Inh / %: 0
- molecule: "CC(C)(C)c1ccc(C(=O)Nc2cn3cc(Cl)ccc3n2)cc1"
  %Inh / %: 0
- molecule: "COc1cc2ncnc(Nc3ccc4nc(-c5ccccc5)[nH]c4c3)c2cc1OC.Cl"
  %Inh / %: 0
